- Method Notes: viability loss with induced miR-34 in A549 – imaging, A549 dox-inducible miR-34, nuclei and caspase counts, primary screen (AID 1347080); also: test concentration not given here
- Condition Notes: A549 miR-34 inducible, Hoechst nuclei count, 48 h; measured here: total cells without miR-34 induction
Experimental Endpoint: cell count
Output: the number by itself.

Solved entries (count: 4):
{"Compound": "O[C@@H]1[C@H](O)[C@@H](CCl)O[C@H]1n1cnc2c(NC3CC4CCC3C4)ncnc21 (stereo not given in full)", "Reported": 9310}
{"Compound": "CCOC(=O)/C=C/[C@H](CC(C)C)NC(=O)[C@H](CO)NC(=O)[C@@H](NC(=O)c1cccc(O)c1C)C(C)C", "Reported": 5980}
{"Compound": "O=C(NCCCN1CCC2(CC1)OCc1ccccc12)[C@H]1CCCN1Cc1ccccc1", "Reported": 8180}
{"Compound": "N[C@@H](CC(=O)Nc1ccc(Oc2cc(F)c(F)cc2Br)cc1)C(=O)O", "Reported": 8270}

Query string: Given the compound `C=CC(=O)Nc1cccc(Oc2nc(Nc3ccc(N4CCN(C)CC4)cc3)ncc2Cl)c1` , write its reported cell count.
Result string: 1610

Query string: Given the compound `CCCCC/C=C\C/C=C\C/C=C\C/C=C\CCCC(=O)OCC` , write its reported cell count.
Result string: 6410

These entries and their values trace back to PubChem BioAssay.
